- study target: human PAH with the R408W mutation (Homo sapiens, UniProt P00439, R408W)
- Construct: expressed in transfected cells
- Sequence (P00439 whole entry R408W): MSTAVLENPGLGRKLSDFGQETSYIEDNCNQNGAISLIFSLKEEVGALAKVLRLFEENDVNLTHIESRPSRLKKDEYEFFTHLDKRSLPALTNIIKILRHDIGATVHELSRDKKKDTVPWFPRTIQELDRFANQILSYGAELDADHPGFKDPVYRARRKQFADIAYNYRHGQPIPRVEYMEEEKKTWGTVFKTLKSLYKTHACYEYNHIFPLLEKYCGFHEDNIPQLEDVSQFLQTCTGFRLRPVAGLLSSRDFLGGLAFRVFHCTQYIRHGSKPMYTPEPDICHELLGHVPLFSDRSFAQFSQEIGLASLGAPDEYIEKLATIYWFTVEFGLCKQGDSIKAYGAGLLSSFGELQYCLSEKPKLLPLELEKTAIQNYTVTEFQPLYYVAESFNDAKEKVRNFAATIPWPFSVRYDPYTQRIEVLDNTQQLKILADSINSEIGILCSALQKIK
- protocol notes: Cell Based Phenylalanine Flux Assay;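 further: Ten-point dose curve from 2-fold serial dilutions, run in duplicate at 0.5% DMSO final, tracer step used 20 µM sepiapterin and 800 µM labeled phenylalanine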
- condition details: A375 cells expressing R408W PAH; 24 hrs with compound, then 20 μM sepiapterin and 800 μM 13C9,15N-Phenylalanine for 4 hours; 13C-Tyrosine in media by LC-MS; average where tested multiple times; read-out: AC50
assay endpoint: AC50

As a guide, the following entries are already answered.
>>> reported_result("Cc1nc([C@@H](C)O)oc1C(=O)N1CCc2[nH]cnc2[C@H]1c1cc2cccc(C)n2n1 (single isomer, unassigned)")
"1 to 5 µM"
>>> reported_result("COc1cccn2nc([C@@H]3c4nc[nH]c4CCN3C(=O)c3nnc(-c4cnn(C(F)(F)F)c4)o3)cc12 (single isomer, unassigned)")
"1 to 5 µM"
>>> reported_result("O=C(C1CC1)N1CCc2[nH]cnc2[C@H]1c1cc2c(F)cccn2n1 (single isomer, unassigned)")
"> 5 µM"
>>> reported_result("Cc1cccn2nc([C@@H]3c4nc[nH]c4CCN3c3nnc(-c4cnn(C)c4)o3)cc12 (single isomer, unassigned)")
"1 to 5 µM"
>>> reported_result("CC(C)(F)c1nnc(C(=O)N2CCc3[nH]cnc3C2c2cc3cc(C(F)(F)F)ccn3n2)o1 (stereo not shown)")
"1 to 5 µM"
>>> reported_result("N#Cc1ncoc1C(=O)N1CCc2[nH]cnc2C1c1nn2ccccc2c1Br (stereo not shown)")
"1 to 5 µM"

Noted for Nc1cnc(N2CCc3[nH]cnc3[C@H]2c2cc3ccccn3n2)nc1 (single isomer, unassigned) : its AC50 reads > 5 µM

Noted for CC(C)(F)c1nnc(N2CCc3[nH]cnc3[C@H]2c2cc3c(C4CC4)cccn3n2)o1 (single isomer, unassigned) : its AC50 reads > 5 µM

Noted for Fc1cccc2cc([C@H]3c4nc[nH]c4CCN3c3ncccn3)nn12 (single isomer, unassigned) : its AC50 reads > 5 µM

Noted for Cc1nnc(C(=O)N2CCc3[nH]cnc3C2c2cc3cccc(C(F)F)n3n2)o1 (stereo not shown) : its AC50 reads 1 to 5 µM

Noted for COCc1ncc(C(=O)N2CCc3[nH]cnc3C2c2cc3ccccn3n2)o1 (stereo not shown) : its AC50 reads 1 to 5 µM

Noted for O=C(c1cnc(-c2ncccn2)o1)N1CCc2[nH]cnc2[C@H]1c1cc2ccccn2n1 (single isomer, unassigned) : its AC50 reads 1 to 5 µM

Noted for CC1(c2nnc(N3CCc4[nH]cnc4C3c3cc4ccccn4n3)o2)CC1 (stereo not shown) : its AC50 reads 1 to 5 µM

Noted for Cn1ccc(-c2nnc(C(=O)N3CCc4[nH]cnc4[C@H]3c3cc4cc(C(F)(F)F)ccn4n3)o2)n1 (single isomer, unassigned) : its AC50 reads 1 to 5 µM

Noted for c1ccn2nc(C3c4nc[nH]c4CCN3c3nnc(C4CCC4)o3)cc2c1 (single isomer, unassigned) : its AC50 reads 1 to 5 µM

Noted for O=C(c1nnc(C2CC(F)(F)C2)o1)N1CCc2[nH]cnc2C1c1cc2cccc(F)n2n1 (stereo not shown) : its AC50 reads 1 to 5 µM

Hey, just so you know, these numbers are from patent US12673961B2.
